# TARGET OR TEST SYSTEM: Programmed Death 1 (PD-1) (UniProt Q15116 25-288, limits assumed)
# Sequence (Q15116 25-288 limits assumed): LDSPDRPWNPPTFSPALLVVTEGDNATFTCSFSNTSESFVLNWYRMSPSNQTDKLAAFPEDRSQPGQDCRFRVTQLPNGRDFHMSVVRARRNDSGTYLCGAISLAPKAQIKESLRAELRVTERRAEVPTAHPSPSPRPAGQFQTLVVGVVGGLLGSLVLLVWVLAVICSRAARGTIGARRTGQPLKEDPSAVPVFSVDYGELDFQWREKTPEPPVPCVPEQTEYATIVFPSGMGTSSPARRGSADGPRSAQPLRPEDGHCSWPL
# TEST DETAILS: rank of the clone by competition binding against labelled murine mAb BAP049, second experiment (legends paragraph 52); footnote: empty boxes means worse than 4
OBSERVABLE: Competition Binding, 2nd exp. (rank)
Give the value as a plain number.

Problem: Query: Competition Binding, 2nd exp. (rank); subject: BAP049-hum16 (antibody, human IgG4 S228P, kappa, V domains shown, also called clone 16) VH: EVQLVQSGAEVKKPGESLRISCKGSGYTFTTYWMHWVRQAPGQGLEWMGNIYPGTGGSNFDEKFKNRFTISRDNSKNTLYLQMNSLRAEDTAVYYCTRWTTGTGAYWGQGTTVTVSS VL: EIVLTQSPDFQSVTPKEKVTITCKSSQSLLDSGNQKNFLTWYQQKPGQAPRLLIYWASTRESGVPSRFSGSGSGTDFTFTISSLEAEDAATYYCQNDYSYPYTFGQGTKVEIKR
Result: 15

Problem: Query: Competition Binding, 2nd exp. (rank); subject: BAP049-hum01 (antibody, human IgG4 S228P, kappa, V domains shown, Humanized anti-PD-1 mAb; also called humanized BAP049 clone hum01) VH: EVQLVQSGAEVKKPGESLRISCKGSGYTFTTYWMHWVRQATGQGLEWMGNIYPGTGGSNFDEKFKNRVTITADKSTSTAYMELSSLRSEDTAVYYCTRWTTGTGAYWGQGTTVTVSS VL: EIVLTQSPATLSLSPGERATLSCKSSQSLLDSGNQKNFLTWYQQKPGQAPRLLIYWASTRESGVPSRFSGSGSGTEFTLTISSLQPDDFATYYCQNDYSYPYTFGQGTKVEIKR
Result: 2

Problem: Query: Competition Binding, 2nd exp. (rank); subject: BAP049-hum02 (antibody, human IgG4 S228P, kappa, V domains shown, also called clone 2) VH: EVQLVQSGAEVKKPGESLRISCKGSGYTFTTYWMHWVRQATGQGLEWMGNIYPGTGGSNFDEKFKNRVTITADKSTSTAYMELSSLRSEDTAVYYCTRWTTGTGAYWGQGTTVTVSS VL: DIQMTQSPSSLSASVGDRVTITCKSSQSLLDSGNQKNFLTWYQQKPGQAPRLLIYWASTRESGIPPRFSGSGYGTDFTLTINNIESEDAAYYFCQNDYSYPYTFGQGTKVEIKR
Result: 2
